Where do the numbers come from? From PubChem BioAssay (NCI).

# Protocol: NCI Yeast Anticancer Drug Screen. Data for the mlh1 rad18 strain (AID 175)
# Condition Details: S. cerevisiae mlh1 rad18 strain growth inhibition; at 50.0 µM
Compounds without any hit were thinned out: in the full panel of roughly 79,000, 15% have a hit. Activity calls are given as the source filed them. No stated cut-off is given here; in the data, active means growth inhibition above about 70%; inactive means the rest. Where a SMILES comes first, the peptide text is derived from it. [ ]: non-standard residue; d: D form. ξ: configuration not given here. ξD = NC(CC(=O)O)C(=O)O
Labels: active, inactive

• c1ccc(C2NCCNC2c2ccccc2)cc1 (stereo not given) = inactive
• CC1(C)N=c2cc3c(cc2N1c1ccc(Cl)cc1)=Nc1ccccc1N3c1ccc(Cl)cc1 = active
• NCC(=O)NC(CC(=O)O)C(=O)O (stereo not given) (H-Gly-[ξD]-OH) = inactive
• Oc1ccc(Br)cc1Sc1cc(Br)ccc1O = active
• Cc1ccccc1N=C(N)Nc1ccccc1C (tested in a mixture with another compound) = inactive

----------
# Protocol: NCI Yeast Anticancer Drug Screen. Data for the rad50 strain (AID 155);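 further: 0% = growth of vehicle-only cultures of the same strain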
# Condition Details: S. cerevisiae rad50 strain growth inhibition; at 50.0 µM (retest, dose inferred, filed as 5.0)
The panel holds about 79,000 compounds, 15% with a hit somewhere; the sample as a whole holds those more often. Activity calls are given as the source filed them. Cut-off read from the data, not from the text of the source: active = growth inhibition above about 70%; inactive = the rest.
Labels: true (active), false (inactive)

* C=C(C(N)=O)C(N)C(=O)O (stereo not given) | false
* Cc1ccc(-c2c(C#N)c(-c3ccc(C)cc3)n(NS(=O)(=O)c3ccccc3)c(=O)c2C#N)cc1 | true
* CCCCCCCCCCCC[N+]1(CCCCCCCCCCCC)CCCC(C)C1 (stereo not given) | true
* CCOC(=O)C1C(C(C)C)C2(C#N)C(=N)OC1(C)C2(C#N)C#N (stereo not given) | false
* Nc1ncnc2c(C3OC(CO)C(O)C3O)c[nH]c12 (stereo not given) | true
* CN=C(N)N/N=C(\C)c1ccc2c(c1)Cc1ccccc1-2 | true
* C=C(C)C1CC2(C)C(C)CC(O)CC2C(OC(=O)C=C(C)C)C1O (stereo not given) | true
* CCOC(=O)c1c(C)[nH]c2ccc(O)cc12 | false
* Cc1cc(C)c([I+]c2c(C)cc(C)cc2C)c(C)c1 | true
* O=[N+]([O-])c1ccc(Oc2ccccc2Cl)c([N+](=O)[O-])c1 | true
* N#C/C(=N\O)C(N)=O | true
* CCC1CCCCN1C(=S)N/N=C(\C)c1ccccn1 (stereo not given) | true
* C[n+]1ccccc1C[n+]1ccccc1 | false
* O=[N+]([O-])CC(O)c1ccccc1 (stereo not given) | false
* COc1c(/C=C/C=O)cc2c(c1OC)OCO2 | true
* CC(=O)Nc1ccc(C(=O)CCl)cc1 | true
* CCCCC(C=O)(C=C=C(C)C)CC (stereo not given) | false
* O=C1C=Cc2ccccc2/C1=C/c1nc(-c2ccccc2)oc1O | true
* Oc1ccc2c(c1)CCc1ccccc1-2 | true
* O=C1c2ccccc2C(=O)c2c(O)c(Cl)cc(O)c21 | false
* Cc1nn(CCO)c(C)c1N=[N+]([O-])c1c(C)nn(CCO)c1C | true
* C=C(CO)C(=O)OC1CC(=C)C2CC(O)C(C)C2C2OC(=O)C(=C)C12 (stereo not given) | true
* CC(C)(C)c1ccc(CCO)cc1 | false
* O=C1C(=O)c2cc([N+](=O)[O-])ccc2-c2ccccc21 | true
* CCOc1ccc(NC(=O)/C(=N\N)C(C(=O)OC)c2nc3ccc(Cl)cc3[nH]c2=O)cc1 (stereo not given) | false

----------
# Protocol: NCI Yeast Anticancer Drug Screen. Data for the cln2 rad14 strain (AID 165);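 further: 0% = growth equal to vehicle treated cultures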
# Condition Details: S. cerevisiae cln2 rad14 strain, at 50.0 µM (retest, dose inferred, filed as 5.0)
Compounds without any hit were thinned out: in the full panel of roughly 79,000, 15% have a hit. Calls of active or inactive are those of the source. No stated cut-off is given here; in the data, active means growth inhibition above about 70%; inactive means the rest.
Labels: label 1 for active, label 0 for inactive

- c1ccc(-c2cccc(-c3ccccn3)n2)nc1: label 1
- O=C1C=CC(=O)c2c(O)c(CO)c(CO)c(O)c21: label 1
- Cc1cc(=O)oc2cc(O)cc(O)c12: label 0
- CN(C)c1cc(N)c(Cc2c(N)cc(N(C)C)cc2Cl)c(Cl)c1: label 1
- Cc1ccc2[nH]cc(CC(=O)O)c2c1: label 1
- OCCOSCCO: label 0
- CC1C(c2ccccc2)OCCN1C(=S)Nc1ccc(S(=O)(=O)N2CCCCC2)cc1 (configuration not stated): label 1

----------
# Protocol: NCI Yeast Anticancer Drug Screen. Data for the bub3 strain (AID 167)
# Condition Details: S. cerevisiae bub3 mutant strain, at 50.0 µM (retest, dose inferred, filed as 5.0), active compounds read high
This is part of a sample that, as a whole, favours compounds with a hit. Of some 79,000 tested, about 15% had one in any assay. Active and inactive are the calls of the source. Rule as the data show it: active = growth inhibition above about 70%; inactive = the rest.
Parameter: growth inhibition

- CCCCCC[C@@H](O)C/C=C\CCCCCCCC(=O)OCCOC: 86% (active)
- CC(C)=CCCC(C)C1=C(O)C(=O)C(C)=CC1=O (centres undefined): 99% (active)
- C=C(C)C1CC2(C)C(C)CC(O)CC2C(OC(=O)C=C(C)C)C1O (centres undefined): 78% (active)
- CCCCCCCCCCCCCCCCSC(=NCC)NCC: 99% (active)
- CC1=CC[C@@H]2[C@@H](CC[C@@]2(C)O)C(C)(C)[C@H]1CC[C@@H]1[C@@]2(C)CCC(=O)C(C)(C)O[C@@H]2CC[C@]1(C)O: 73% (active)
- COc1cc([C@@H]2c3cc4c(cc3[C@H](OC3OC5COC(c6ccccc6)OC5C(O)C3O)[C@H]3COC(=O)[C@H]23)OCO4)cc(OC)c1OC (some centres undefined): 82% (active)
- Oc1ccc(Cc2cccc(Cl)c2)c(O)c1: 92% (active)
- CC1OC(OC2C(OC3CCC4(C)C(CCC5(C)C4CC=C4C6CC(C)(C)CCC6(C(=O)O)CCC45C)C3(C)CO)OCC(O)C2O)C(O)C(O)C1O (centres undefined): 99% (active)
- COC1=CC(=O)c2c(O)c3c(c(O)c2C1=O)CC(C)(O)OC3 (centres undefined): 73% (active)

----------
# Protocol: NCI Yeast Anticancer Drug Screen. Data for the mlh1 rad18 strain (AID 175)
# Condition Details: S. cerevisiae mlh1 rad18 strain growth inhibition; at 50.0 µM (retest, dose inferred, filed as 5.0); active compounds read high
About 79,000 compounds went through this panel and 15% of them were active in at least one assay; those are over-represented in the sample as a whole.
In this section, each of the compounds is paired with its reported growth inhibition.
Parameter: growth inhibition (%)

- CCCCCCCCCCCCCCCc1ccc(C(=O)C[n+]2ccccc2)cc1: 97
- CNc1ncnc2nc(C)[nH]c12: 16
- CC1=C(Cl)C[C@@H](/C(C)=C\Cl)O[C@@]1(O)C(Br)Br: 92
- CCC(C)(CC)c1ccc(O)cc1: 76
- Nc1ccc(C(=O)/C=C/c2ccccc2)cc1: 53
- Cn1c(COC(=O)NC2CCCCC2)c(COC(=O)NC2CCCCC2)c2ccc3cc(Cl)c(Cl)cc3c21: 11
- Cc1ccc(N2C(=O)C=CC2=O)cc1: 100
- Clc1ccc(-n2ncc3c(NCCCN4CCOCC4)ncnc32)cc1: 79
- COc1ccc(N=NC(C#N)C#N)cc1: 96
- CC1CC(C)(C)OB(OC(C)CC(C)(C)OB2OC(C)CC(C)(C)O2)O1 (configuration not stated): -34
- CC(C)N=C(N)/N=C(\N)Nc1ccc2ccc3ccccc3c2c1: 99
- Cc1cc(C)c(C#N)c(Sc2nc(C)c([N+](=O)[O-])c(C)c2C#N)n1: 55
- Nc1cccc2cccc([N+](=O)[O-])c12: -68
- CC1(C)CCCC2=C1C(=O)N(SC(Cl)(Cl)Cl)C2=O: 99
- O=C(OC12CC3CC(CC(C3)C1)C2)c1ccc(NCc2cc(O)ccc2O)cc1: 94
- CCNc1nnnn1CC: 18
- O=C(Nc1ccc(Cl)c(Cl)c1)Nc1ccccc1O: 54
- O=C1c2ccccc2Cc2cccc(Cl)c21: 17
- CC(C)(C)c1ccc(O)c(Br)c1: 8
- N=C1C(=N)c2ccccc2-c2ccccc21: 99
- O=[N+]([O-])c1ccc2c(c1)Cc1ccccc1-2: 2
- COc1ccc2c(c1)c(CC(=O)O)c(C)n2C(=O)c1ccc(Cl)cc1: 39
- O=[N+]([O-])c1ccc(Oc2ccccc2Cl)c([N+](=O)[O-])c1: 97
- C[C@@]1(CO)[C@H](O)CC[C@@]2(C)[C@H]1CC[C@H]1C[C@@H]3C[C@@]12CC[C@@]3(O)COC(=O)CN: 97
- O=C1C=CC(=O)N1c1ccccc1: 99
- CN(C)c1ccc(/C=C/c2cc[n+](C)c(/C=C/c3ccc(N(C)C)cc3)c2)cc1: 96
- Cc1cc(=O)oc2cc(O)cc(O)c12: 1
- CCCCCCCCCCCCN1C(C)=CS/C1=C\C=C\c1scc(C)[n+]1CCCCCCCCCCCC: 93
- CCCCCC[C@@H](O)C/C=C\CCCCCCCC(=O)OCCOC: 13
- OC(Cc1cc(CC(O)(C(F)(F)F)C(F)(F)F)nc(CC(O)(C(F)(F)F)C(F)(F)F)c1)(C(F)(F)F)C(F)(F)F: 99
- CC(=O)c1ccc2c(c1)CCc1ccccc1-2: 79
- OCCOSCCO: -4
- CCC[CH2][Sn]1([CH2]CCC)[O]C2C(CO)OC(n3ccc(N)nc3=O)C2[O]1 (configuration not stated): 96
- CC1=CC(=NC(=O)CBr)C=C/C1=N\S(=O)(=O)c1ccccc1: 99
- CC1C(c2ccccc2)OCCN1C(=S)Nc1ccc(S(=O)(=O)N2CCCCC2)cc1 (configuration not stated): 88
- O=C(/C=C/c1ccccc1)c1ccccc1O: 78
- COc1ccc(NC(=O)/C(=C/N2C(=O)/C(=C/c3ccc(OC)c(OC)c3)NC2=S)C(C)=O)cc1: 82
- C/C=C/c1cc2c(c(=O)o1)C(=O)[C@@H](O)[C@H](C)O2: 26
- O=C1c2ccccc2-c2ccc(O)cc21: 90
- CN=C(N)N/N=C(\C)c1ccc2c(c1)Cc1ccccc1-2: 96
- CC(C)(C)c1ccc(O)c(-c2ccccc2)c1: 98
- CCCCCCCCCCCCCCCCSC(=NCC)NCC: 99
- COc1cccc(N=N/C(=N\NC(=O)c2cc(Br)ccc2O)c2ccc(N(CCC#N)CCC#N)cc2OC)c1: 43
- C/C(=N/NC(N)=S)c1ccc(C)cc1: 20
- NCCCN(CCCN)CCCNCc1c2ccccc2c(CNCCCN(CCCN)CCCN)c2ccccc12: 99
- CC(C)c1ccc(C(=O)OC2CCCC2)cc1: 99
- CCN1/C(=C/C(C)=C/c2sc3ccc4ccccc4c3[n+]2CC)Sc2ccc3ccccc3c21: 35
